Answer each item with its documented growth inhibition.
- assay-notes: NCI Yeast Anticancer Drug Screen. Data for the mec2-1 strain (AID 157)
- measurement-conditions: S. cerevisiae mec2-1 strain, at 50.0 µM, stronger effect = higher value
Compounds without any hit were thinned out: in the full panel of roughly 79,000, 15% have a hit.
Numeric answer only, unit % assumed.

Using the record for CNc1nc2c(C)ccc3[nH]c(N(C)C)nc3c-2n1 , state its measured growth inhibition. -32.8

Recall and state the measured growth inhibition for CC1OC23CCCCC2C(C#N)(C#N)C1(C#N)C(=N)O3 (stereo not given) . 9.5

Provide only the value of recorded growth inhibition for c1ccc(-c2nc3ccc4ccccc4c3nc2-c2ccccc2)cc1 -35.2

For CCn1c(C)nc2cc(S(=O)(=O)CS(C)(=O)=O)ccc21 , write its growth inhibition. -12.8

Name the recorded growth inhibition of the compound listed here: COc1cc(-c2cc(=O)c3c(O)cc(C)cc3o2)cc(OC)c1OC -9.8

Complete the entry with growth inhibition for O=C(N/N=C/c1ccc2c(c1)CCC2)c1cc2ccccc2cc1O -8.15

Identify measured growth inhibition corresponding to c1ccc2c(c1)OCCOCCOc1ccccc1OCCOCCO2 10.8

Provide only the value of recorded growth inhibition for S=C(NNc1ccccc1)NC1CCCCC1 -37.2

State, in one line, measured growth inhibition of COc1ccc2cc(CN3CCC(C4CCNCC4)CC3)ccc2c1 -4.8

For the compound O=C(O)c1ccc(NCn2c(=S)[nH]c3ccccc32)cc1O , give its reported growth inhibition. -42.5

Specify growth inhibition for N#[N+]c1ccc2c(S(=O)(=O)O)cccc2c1O and stop. -16.2

Please report the measured growth inhibition for N#Cc1nc(C(F)(F)F)oc1N -1

Identify measured growth inhibition corresponding to O=C(CN1C(=O)c2ccccc2C1=O)c1ccc(Br)cc1 16.1

Using known records, supply growth inhibition for COc1cc(C)c2c(c1C=O)Oc1c(c(C)c(O)c3c1C(O)OC3=O)OC2=O (stereo not given) -7.65

State, in one line, measured growth inhibition of O=C1C=CC=C/C1=C1\N=C(c2ccccc2OCC(=O)c2ccc(Br)cc2)SS1 18.1

Fill in growth inhibition for record CN(C)c1ccc(C2=C([O-])C(=C3C=CC(=[N+](C)C)C=C3)C2=O)cc1 -15.2

Query growth inhibition for COc1cc(/C=C(/C#N)C(N)=O)ccc1O -35

Entry N#C/C(=C1C=C(Br)/C(=N\O)C=C\1Cl)c1ccc(Cl)cc1 needs its growth inhibition filled in; supply it. 4.55

Give the reported growth inhibition for this compound. COc1ccc2nc(NC(=O)/C(C#N)=C/c3ccccc3)sc2c1 -24.9

Using known records, supply growth inhibition for CCC(=O)C(CC)c1cccc(OC)c1 (stereo not given) -3.8

Return the recorded growth inhibition value; entry: COc1ccc2c(=O)c(-c3cc4c(cc3OC)OCO4)coc2c1 -30.9

Consider the compound Cc1ccc(C)c(NC(=O)/C(=N\N)C(c2cnc3ccc([N+](=O)[O-])cc3n2)[N+](=O)[O-])c1 (stereo not given) and give its recorded growth inhibition. 27.2

Name the recorded growth inhibition of the compound listed here: COc1ccc(-c2cc(=O)c3c(ccc4ccccc43)o2)cc1 3.4

Answer with the recorded growth inhibition for the compound listed here: Cn1/c(=N/Sc2nnnn2-c2ccccc2)sc2ccccc21 -13.9

Dear colleague, please send me the reported growth inhibition for N/N=C(\C(=O)Nc1ccc([N+](=O)[O-])cc1)C(C1=Nc2cc([N+](=O)[O-])ccc2NC1)[N+](=O)[O-] (stereo not given) when you can. 11.7

Supply measured growth inhibition of CCCCCCC(=O)CCCC(C)CCCC(C)C (stereo not given) in your reply. -23.6

Annotate the compound Cc1cccc(NNC(=S)Nc2ccccc2)c1 with its measured growth inhibition. -14.8

Name the recorded growth inhibition of the item CC1OC(Oc2c(-c3cc(O)c(O)c(O)c3)oc3cc(O)cc(O)c3c2=O)C(O)C(O)C1O (stereo not given) in your answer. -16.8

Specify growth inhibition for COc1c2c(c3c(c1OC)c(=O)c1ccccc1n3C)OCO2 and stop. 10.8

Answer with reported growth inhibition of O=C(O)C1(c2ccc(Cl)cc2)CCCC1 8.75

Please supply the value of reported growth inhibition for the item COc1cc2oc3c(c(=O)c2c(O)c1/C=C/C(C)C)CCC(C)(C)Oc1cc(O)ccc1-3 11.1

Please give measured growth inhibition of the following entry: CC1C2(C)OC(=N)C(C#N)(C(c3cccc([N+](=O)[O-])c3)O2)C1(C#N)C#N (stereo not given) 1.55

State its growth inhibition for this compound: O=c1c2ccccc2nc(-c2ccccc2)n1/N=C/c1ccccc1[N+](=O)[O-] 1

Report measured growth inhibition; entry is CC1CC(C(=O)OC2OC(COC3OC(CO)C(OC4OC(C)C(O)C(O)C4O)C(O)C3O)C(O)C(O)C2O)C2CCC3(C)C(=CCC4(C)C3CCC3C(C)(CO)C(O)C(O)CC34C)C2C1C (stereo not given) 68.1

Let me know recorded growth inhibition for CC12CC3(C)CC(C)(C1)CC(C(Cl)C(=O)O)(C2)C3 (stereo not given) , thanks. 22.8

State its growth inhibition: N#CCC(=O)OCCCCOC(=O)CC#N -22.3

Output measured growth inhibition for this item: CCCCOc1cc(C(=O)NCCN(CC)CC)c2ccccc2n1 -9.6

Supply reported growth inhibition belonging to this compound: O=C(O)/C=C/C(=O)Nc1cc(Cl)c(Cl)cc1Cl -3.25

Item COc1ccccc1N1C(=O)CC(Sc2ccccc2N)C1=O (stereo not given) : provide growth inhibition -19.4

Annotate the compound COC(=O)C1=CO[C@@H](OC2OC(CO)C(O)C(O)C2O)[C@H]2[C@@H](C)[C@@H](O)[C@@H](O)[C@@H]12 (stereo not given in full) with its measured growth inhibition. -10.1

----------
- assay-notes: NCI Yeast Anticancer Drug Screen. Data for the rad50 strain (AID 155);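 also: 0% = growth of vehicle-only cultures of the same strain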
- measurement-conditions: S. cerevisiae rad50 strain growth inhibition; at 50.0 µM; stronger effect = higher value
About 79,000 compounds went through this panel and 15% of them were active in at least one assay; those are over-represented in the sample as a whole.
measured-parameter: growth inhibition (%)
Reply with just the number (in %).

Look up and report measured growth inhibition for this entry: Cc1ccc(CNc2cc(C)ccn2)cc1 42.9

Supply measured growth inhibition of NC(=O)NC(CCCN=C(N)N)C(=O)O (configuration not stated) in your reply. -21.4

Supply measured growth inhibition of Cc1ccccc1CC1c2[nH]c3ccccc3c2CCN1C (configuration not stated) in your reply. -9.95

Consider the compound Cc1ccc(-c2noc(CC(=O)c3ccc([N+](=O)[O-])cc3)n2)cc1 and give its recorded growth inhibition. 14.4

Identify measured growth inhibition associated with O=C1NC(N/N=C\C(O)C(O)C(O)C(O)CO)=N/C1=C\c1ccc(Cl)cc1 (configuration not stated) 23.6

Given the compound Cc1ccc2nc3c(nc2c1)-c1cccc2cccc-3c12 , write its reported growth inhibition. -18.6

Supply measured growth inhibition of CN(C)c1ccc(P(c2ccc(N(C)C)cc2)c2ccc(N(C)C)cc2)cc1 in your reply. -17.2

Assign growth inhibition to the following record: O=C(CC(CC(=O)c1ccccc1)c1ccco1)c1ccccc1 2.6

Give a short answer stating reported growth inhibition for CCC(=O)C(CC)c1cccc(OC)c1 (configuration not stated) . 16.6

Identify measured growth inhibition associated with CC/C(Cl)=N\OC(=O)Nc1ccc(OC)cc1 -5.35

Return growth inhibition for the following compound: C/C(=C\COc1cc(O)c2c(c1)C(=O)c1cc(C)cc(O)c1C2=O)CCC1OC1(C)C (configuration not stated) 16.7

Kindly indicate its recorded growth inhibition. Item: N#Cc1nc(-c2cccc(-c3nc(C#N)c(N)o3)n2)oc1N 2.7

Input CS(=O)(=O)c1ccc(NN)c([N+](=O)[O-])c1 (tested in a mixture with another compound) , output reported growth inhibition. -25.7

In one line, give reported growth inhibition of the entry CCCCCCC(=O)C(CCCC)(C(=O)OCC)C(=O)OCC . 0.4

Using known records, supply growth inhibition for N#C/C(=C/c1ccc(O)c(O)c1)C(N)=O 23.6

Please report the measured growth inhibition for CCOC(=O)COc1cc(-c2ccccc2)nc2cc(F)ccc12 10.5

Give the reported growth inhibition for this compound. O=Cc1ccc2c(c1Cl)C(=O)c1ccccc1C2=O 51

Read off the recorded growth inhibition for CC1(C)Oc2ccc3c(=O)cc(-c4ccc(F)cc4)oc3c2C1C(=O)O (configuration not stated) -2.3

Give a short answer stating reported growth inhibition for CC1CC(C)(C)N=C(Cc2ccccc2)O1 (configuration not stated) . -26.6

Find the measured growth inhibition of Nc1cc(S(=O)(=O)c2ccc(O)c(N)c2)ccc1O and report it. 5.1

For the compound C=CC(COC(=O)C(C)(C)OC(C)=O)c1ccc(OC(=O)C(C)C)c(OC)c1 (configuration not stated) , give its measured growth inhibition value. -12.3

Provide growth inhibition value for the following compound: COc1ccc(C(C(N)=O)N2CCCC2)cc1 (configuration not stated) 1

Indicate its recorded growth inhibition; the compound in question is Clc1ccc(C2C3COc4ccccc4C3=NN2c2ccccc2)cc1 (configuration not stated) -26.1

Supply growth inhibition value. Item: COc1cc([C@H]2OC[C@@H]3C(c4cc(OC)c5c(c4)OCO5)OC[C@H]23)cc(OC)c1OC (some centres not stated) -8.65

Retrieve growth inhibition measured for COc1ccc(-c2cc(=O)c3c(O)cc(C)cc3o2)cc1OC and print it. -23.9

Specify reported growth inhibition for the compound shown: COc1ccc(-c2cc(=O)c3c(O)cccc3o2)cc1 2.65

Identify measured growth inhibition associated with CN1C(=S)c2ccccc2S1(=O)=O -6.6

Note growth inhibition for the compound shown: Cc1ccc(NC(=S)N(C)C)cc1C -2.7

Give recorded growth inhibition. N#[N+]c1c(O)cc(S(=O)(=O)O)c2ccccc12 -21.6

Determine its reported growth inhibition: O=C1OC(c2ccccc2)=N/C1=C/c1cccs1 6.85

Identify measured growth inhibition corresponding to O=C(O)/C=C/C(=O)Nc1cc(Cl)c(Cl)cc1Cl -11.3

Check the records and state growth inhibition for Cc1ccc(CNc2ccc(F)cc2)cc1 29.9
